Recorded values, source patent US20200216532A1.

Molecular target: T1, purified interference factor(s), Donor A
T1 construct: also called interference in serum from Donor A
Experiment: SPR, interference factor immobilized

| binder | % of binding of reference (=100%) |
| --- | --- |
| SEQ ID NO: 83 (VHH, Ex. 8) VHH: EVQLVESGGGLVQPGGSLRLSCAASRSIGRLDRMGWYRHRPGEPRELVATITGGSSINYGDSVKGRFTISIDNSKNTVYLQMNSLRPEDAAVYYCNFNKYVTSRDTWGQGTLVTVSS | 56% |
| SEQ ID NO: 80 (VHH, Ex. 8) VHH: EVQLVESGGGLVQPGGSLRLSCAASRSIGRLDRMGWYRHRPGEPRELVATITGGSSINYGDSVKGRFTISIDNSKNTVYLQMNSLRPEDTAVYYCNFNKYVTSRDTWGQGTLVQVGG | 65% |
| SEQ ID NO: 69 (VHH, Ex. 8) VHH: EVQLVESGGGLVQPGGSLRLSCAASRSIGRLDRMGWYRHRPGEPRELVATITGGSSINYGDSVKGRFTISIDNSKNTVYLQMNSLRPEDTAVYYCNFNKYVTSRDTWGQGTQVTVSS | 80% |
| SEQ ID NO: 45 (VHH, Ex. 8; no addition) VHH: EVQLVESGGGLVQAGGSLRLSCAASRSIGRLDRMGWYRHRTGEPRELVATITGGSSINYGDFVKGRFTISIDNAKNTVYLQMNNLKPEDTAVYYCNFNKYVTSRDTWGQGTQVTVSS | 0% |
